Value source: PubChem BioAssay (EPA / NIEHS)

- PROTOCOL: CCTE_Shafer_MEA_dev_burst_duration_mean: CCTE's Neural Network Formation Assay for Mean Burst Duration, Shafer Lab (AID 2284045)
Active and inactive are the calls of the source. How the source made its calls: active means hit-call score of the fitted dose curve at least 0.9, where 1 is the maximum; inactive means score below 0.9.
Response enum: active, inactive

Take a look at these entries with their results.
{"COMPOUND": "O=C(O)C1C(C(=O)O)C2(Cl)C(Cl)=C(Cl)C1(Cl)C2(Cl)Cl (configuration not stated)", "LABEL_CLASS": "inactive"}
{"COMPOUND": "OCC(F)(F)OC(F)(F)C(F)(F)OC(F)(F)CO", "LABEL_CLASS": "inactive"}

Next item in the queue.
stdin: In this assay, the call recorded for `CC(C)(C)c1ccccc1OP(=O)(Oc1ccccc1)Oc1ccccc1` was what?
stdout: inactive
